test: Pharmacokinetics of prodrug and amphetamine after oral dosing to male cynomolgus monkeys (Example 21); settings: cynomolgus monkey, plasma, 1 mg/kg
MEASURED ATTRIBUTE: AUC
State the value, then name its unit.

Input "C[C@H](N)Cc1ccccc1" . Output AUC: 4440 ng·h/mL

* * *

assay: Pharmacokinetics of prodrug and amphetamine after oral dosing to male cynomolgus monkeys (Example 21); details: cynomolgus monkey, in vivo, 1 mg/kg
MEASURED ATTRIBUTE: Tmax

Input "C[C@H](N)Cc1ccccc1" . Output Tmax: ≤ 1 h

* * *

assay: Pharmacokinetics of prodrug and amphetamine after oral dosing to male cynomolgus monkeys (Example 21); details: cynomolgus monkey, in vivo, 0.5 mg
MEASURED ATTRIBUTE: Tmax (h)
Use h as the unit, but write only the number.

Input CC(=O)N[C@H]1C(O)O[C@H](CO)[C@H](O)C1O[C@H](C)C(=O)N[C@@H](C)Cc1ccccc1 (stereo partly shown) [Compound 1] . Output Tmax: 1.1

Source: patent US20140073589A1
